Molecular target: HIV integrase (Human immunodeficiency virus type 1 group M subtype B, UniProt P12497, F1332H)
Construct: HIV integrase full length gene
Assay: Determination of enzyme (HIV integrase) inhibitory activity
Settings: recombinant integrase protein (F185H), strand transfer plate assay, absorbance at 450 nm
pIC50: −log10 of the molar value.
measured attribute: pIC50

| smiles string | assay result |
| --- | --- |
| CC(C)(C)[C@@H](CO)n1cc(C(=O)O)c(=O)c2cc(Cc3cc(N4CCCC4=O)c(F)c(Cl)c3F)ccc21 | > 8.00 |
| COc1cc2c(cc1Cc1cc(N3CC[C@H](O)C3)cc(Cl)c1F)c(=O)c(C(=O)O)cn2[C@H](CO)C(C)C | > 8.00 |
| CCc1cc2c(cc1Cc1cc(N3CCOCC3)cc(Cl)c1F)c(=O)c(C(=O)O)cn2[C@H](CO)C(C)(C)C | > 8.00 |
| CCc1cc2c(cc1Cc1cc(N3CCOCC3)cc(Cl)c1F)c(=O)c(C(=O)O)cn2[C@H](CO)COC | > 8.00 |
| COc1cc2c(cc1Cc1cc(N3CCSCC3)cc(Cl)c1F)c(=O)c(C(=O)O)cn2[C@H](CO)C(C)C | > 8.00 |
| COc1cc2c(cc1Cc1cc(N3CCCS3(=O)=O)cc(Cl)c1F)c(=O)c(C(=O)O)cn2[C@H](CO)C(C)C | > 8.00 |
| CC(C)(C)[C@@H](CO)n1cc(C(=O)O)c(=O)c2cc(Cc3cc(N4CCOCC4)c(F)c(Cl)c3F)ccc21 | > 8.00 |
